# ASSAYED SYSTEM: biotinylated FYCO1 peptide (human)
# METHOD NOTES: BLI
ATTRIBUTE MEASURED: pKd
Conceptually, pKd converts a concentration in mol/L into minus its log10.

Q) Enter reported pKd observed with biotinylated FYCO1 peptide (human) for GABARAP (from UniProt O95166 1-117) (natural protein)
A) 5.85
